system: NCI-H460; experiment: NCI tumour cell line growth inhibition, 48 h
Calls of active or inactive are those of the source. Cut-off read from the data, not from the text of the source: active = GI50 up to about 1.1 µM and inactive = higher.
Kindly state GI50 for each of the entries shown.

Input: Return reported GI50; argument: COC(=O)[C@]1(c2cc3ccccc3[nH]2)CC2CN(CC(=O)N(C)OC)C1CC2(OC)OC (stereo not given in full)
Output: 55.3 µM (inactive)

Input: // next record COC1OC(CO)C(O)C(OC(=O)c2cc(O)c(O)c(O)c2)C1OC(=O)c1cc(O)c(O)c(O)c1 (stereo not given)
Output: 69.5 µM (inactive)

Input: // next record COc1ccc(OC)c2sc(N3C(=O)/C(=C/Cc4ccco4)N=C3c3ccccc3)nc12
Output: 50.1 µM (inactive)

Input: // next record Cc1cc(O)c2c(c1)C(=O)C=C(Br)C2=O
Output: 19.9 µM (inactive)

Input: // next record COC(=O)c1ccc2c(c1)CC1(C2)Cc2ccccc2C1=O (stereo not given)
Output: > 100 µM (inactive)

---

test system: DU-145; test: NCI tumour cell line growth inhibition, 48 h
Active and inactive are the calls of the source. Rule as the data show it: active = GI50 up to about 1.1 µM and inactive = higher.
Answer with one of the outcomes yes = active, no = inactive

Input: Called result for CC(C#N)(c1ccccc1)N(CCc1ccccc1)C(=O)Oc1ccccc1 (configuration not stated)
Output: no

Input: // next record Cc1cccc2nc(-c3ccccc3)cc(=O)n12
Output: no

Input: // next record O=C(N[C@@H](Cc1ccccc1)B(O)O)[C@H](Cc1cccc2ccccc12)NC(=O)N1CCOCC1
Output: yes

Input: // next record FC(F)(F)c1ccc2c(c1)nc(Cc1ccc(Cl)cc1)n2CC1CCCN2CCCCC12 (configuration not stated)
Output: no

Input: // next record O=C(N/N=C\c1ccc([N+](=O)[O-])cc1)Nc1ccccc1
Output: no

Input: // next record O=C1CSC(c2ccccc2)N1c1nc2cc3sc(N4C(=O)CSC4c4ccccc4)nc3cc2s1 (configuration not stated)
Output: no

Input: // next record COc1cc(/C=C2/C[C@H]3[C@@H]4CCC5=CC(=O)CC[C@]5(C)[C@H]4CC[C@]3(C)NC2=O)cc(OC)c1OC
Output: no

Input: // next record COC(=O)c1ccc(NCC2=CC(=O)C=CC2=O)cc1O
Output: no

Input: // next record Cc1ccc2nnc(NS(=O)(=O)c3cc(C)c(Cl)cc3S)n2n1
Output: no

Input: // next record O=C(O)C1SCCS1
Output: no

Input: // next record c1ccc2cc3c(cc2c1)nc1ccccn13
Output: no

Input: // next record Cc1cn(C2CC(O)C(Cn3nncc3Cn3cnc4c(N)ncnc43)O2)c(=O)[nH]c1=O (configuration not stated)
Output: no

Input: // next record COc1cc(C2c3cc4c(cc3OC(C)(O)C2C)OCO4)cc(OC)c1OC (configuration not stated)
Output: yes

Input: // next record CC1=C(C(=O)NCC(C)O)CC(C(=O)NCC(C)O)=C(C)N1 (configuration not stated)
Output: no

Input: // next record NC(=S)N/N=C1\CCCCC1C(O)(C(F)(F)Cl)C(F)(F)Cl (configuration not stated)
Output: no

Input: // next record COc1cccc(-c2cc(O)c3cc(Cl)cnc3n2)c1
Output: yes

Input: // next record COC1OC(CO)C(O)C(OC(=O)c2cc(O)c(O)c(O)c2)C1OC(=O)c1cc(O)c(O)c(O)c1 (configuration not stated)
Output: no

Input: // next record O=C(O)CSCc1cccc2ccccc12
Output: no

Input: // next record CCCCc1ccc(Nc2nc(S)c3ncn(COCCO)c3n2)cc1
Output: no

Input: // next record COc1ccc(-c2sc(Br)c3c2C(=O)C2OC(=O)NC32)cc1OC (configuration not stated)
Output: no

Input: // next record COc1ccc(C(Nc2ncccn2)c2cc3c(cc2O)OCO3)cc1 (configuration not stated)
Output: no

Input: // next record Cc1ccnc2nc(-c3ccc(F)cc3)cc(O)c12
Output: no
